# measurement protocol: qHTS assay to identify aromatase inhibitors - cell viability counter screen (AID 743084);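 also: cells stimulated with testosterone during compound exposure; nearly all actives have a fitted effect of over 55% in size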
# measurement parameters: MCF-7 aro ERE viability, CellTiter-Fluor, 24 h; series mostly up to 70.3 µM
Inconclusive results are not listed. The source made the active and inactive calls. Calls follow the shape of the dose curve; as a rule, active = well fitted cell-killing curve with a large enough effect in the repeat runs; inconclusive = weak or mixed curves, or effect the other way; inactive = no such curve, though single readings can be large or run the other way.
Write down one outcome, taken from 1.0 for active, 0.0 for inactive

Qu. Which outcome did this test record for the compound CCC(C)COC(=O)CC(C)C (stereo unspecified) ?
Ans. 0.0

====

# measurement protocol: qHTS assay to identify small molecule antagonists of the farnesoid-X-receptor (FXR) signaling pathway - cell viability counter screen (AID 743221); also: nearly all actives have a fitted effect of over 50% in size
# measurement parameters: FXR-bla HEK293T viability, CellTiter-Glo luminescence, 16 h; series mostly up to 62.6 µM
# Excerpt: National Center for Advancing Translational Sciences [NCATS] NIH Chemical Genomics Center [NCGC] U.S. Environmental Protection Agency [EPA] National Institutes of Environmental Health Sciences [NIEHS] National Toxicology Program [NTP] U.S. Food and Drug Administration [FDA] The farnesoid-X-receptor (FXR), a nuclear hormone receptor, is highly expressed in liver, intestine, kidney and adrenal cortex. Natural ligands of FXR are the bile acids (Cholic acid, Chenodeoxy cholic acid etc). […]
Inconclusive results are not listed. Active and inactive are the calls of the source. Calls come from the whole dose curve; as a rule, active = well fitted cell-killing curve with a large enough effect in the repeat runs (not every such curve was filed as active); inconclusive = weak or mixed curves, or effect the other way; inactive = no such curve, though single readings can be large or run the other way.
Write down one outcome, taken from Y for active, N for inactive

Illustrative cases are given below, each with its answer.
- mol: "CCCCCCCCCI"
  group: "N"
- mol: "CC1(C)[C@@H](OC(=O)CCC(=O)O)CC[C@]2(C)[C@H]3C(=O)C=C4[C@@H]5C[C@@](C)(C(=O)O)CC[C@]5(C)CC[C@@]4(C)[C@]3(C)CC[C@@H]12"
  group: "N"
- mol: "OCCN1CCN(CCCN2c3ccccc3Sc3ccc(Cl)cc32)CC1"
  group: "Y"
- mol: "CO[C@]1(NC(=O)CSC(F)F)C(=O)N2C(C(=O)O)=C(CSc3nnnn3CCO)CO[C@H]21"
  group: "N"
- mol: "Cc1ccccc1S"
  group: "N"

Qu. Which outcome did this test record for the molecule CCC1(CO)COCOC1 ?
Ans. N

Qu. Which outcome did this test record for the molecule Cc1ccco1 ?
Ans. N

====

# measurement protocol: qHTS assay to identify small molecule agonists of the sonic hedgehog signaling (Shh) pathway - cell viability counter screen (AID 1259366); also: nearly all actives have a fitted effect of over 50% in size; also: potency is read from the fitted curve at half-maximal effect
# measurement parameters: NIH/3T3 Gli1-Luc viability, CellTiter-Fluor, 24 h; series mostly up to 92.4 µM
# Excerpt: National Center for Advancing Translational Sciences [NCATS] NIH Chemical Genomics Center [NCGC] U.S. Environmental Protection Agency [EPA] National Institutes of Environmental Health Sciences [NIEHS] National Toxicology Program [NTP] U.S. Food and Drug Administration [FDA] The sonic hedgehog (Shh) pathway is essential for normal embryonic development. Dysregulation of the Shh pathway can cause severe developmental defects in organs. […]
Inconclusive results are not listed. Active and inactive are the calls of the source. The call rests on the fitted dose curve; in most records, active means well fitted cell-killing curve with a large enough effect in the repeat runs; inconclusive means weak or mixed curves, or effect the other way; inactive means flat fitted curve, though single readings scatter.
parameter: Potency

- molecule: "CS(=O)(=O)c1ccc(-c2cn3ccccc3n2)cc1"
  Potency: "inactive"
- molecule: "C=C/C(C)=C/C/C=C(\\C)CCC=C(C)C"
  Potency: "inactive"
- molecule: "COc1cc(C(=O)NC2CCN(C)CC2)ccc1Nc1ncc2c(n1)N(C1CCCC1)CC(F)(F)C(=O)N2C"
  Potency: "5.6 µM (active)"
- molecule: "O=[N+]([O-])c1cc(C2CCCCC2)c(O)c([N+](=O)[O-])c1"
  Potency: "24.3 µM (active)"
- molecule: "COC(=O)c1nc(Cl)c(Cl)nc1N"
  Potency: "10.6 µM (active)"
- molecule: "CC(C)C(O)(c1ccc(OC(F)(F)F)cc1)c1cncnc1 (centres undefined)"
  Potency: "inactive"
- molecule: "NC1[C@H]2CN(c3nc4c(cc3F)c(=O)c(C(=O)O)cn4-c3ccc(F)cc3F)C[C@@H]12 (some centres undefined)"
  Potency: "21.1 µM (active)"
- molecule: "CCCCCC[C@@H](O)C/C=C\\CCCCCCCC(=O)OCC(O)CO (some centres undefined)"
  Potency: "inactive"
- molecule: "C=C1C[C@@]23CC[C@H]4[C@@](C)(CCC[C@@]4(C)C(=O)O[C@@H]4O[C@H](CO)[C@@H](O)[C@H](O)[C@H]4O)[C@@H]2CC[C@]1(O[C@@H]1O[C@H](CO)[C@@H](O)[C@H](O[C@@H]2O[C@H](CO)[C@@H](O)[C@H](O)[C@H]2O)[C@H]1O[C@@H]1O[C@H](CO)[C@@H](O)[C@H](O)[C@H]1O)C3"
  Potency: "inactive"
- molecule: "O=C(/C=C/c1ccccc1)OCCc1ccccc1"
  Potency: "inactive"

Qu. # return recorded Potency for input CCOC(=O)c1ccccc1C(=C1C=C(Br)C(=O)C(Br)=C1)c1cc(Br)c(O)c(Br)c1
Ans. inactive

Qu. # return recorded Potency for input c1ccc2c(c1)CCc1ccccc1N2
Ans. inactive

Qu. # return recorded Potency for input O=C1C(=O)c2ccccc2C(O)=C1C1CCC(c2ccc(Cl)cc2)CC1 (centres undefined)
Ans. inactive

Qu. # return recorded Potency for input CC1=C(CC=O)C(C)(C)CCC1
Ans. inactive

Qu. # return recorded Potency for input CCCCCCCC/C=C\CCCCCCCCCCCC(=O)O
Ans. inactive

====

# measurement protocol: Caspase-3/7 induction in CHO-K1 cells by small molecules, qHTS cell viability counter screen (AID 1346979); also: nearly all actives have a fitted effect of over 35% in size
# measurement parameters: CellTiter-Fluor fluorescence, 17 h; series mostly up to 92.4 µM
Records with an inconclusive call do not appear. Activity calls are given as the source filed them. The call rests on the fitted dose curve; in most records, active means well fitted cell-killing curve with a large enough effect in the repeat runs; inconclusive means weak or mixed curves, or effect the other way; inactive means no such curve, though single readings can be large or run the other way.
Write down one outcome, taken from true (active), false (inactive)

- molecule: "CC(=O)Oc1ccc([N+](=O)[O-])cc1CCl"
  group: "true"
- molecule: "Cc1c(C)c2c(c(C)c1OC(=O)CCC(=O)OCCO)CC[C@@](C)(CCC[C@H](C)CCC[C@H](C)CCCC(C)C)O2"
  group: "false"
- molecule: "CCCCN1CCCC1C(=O)Nc1c(C)cc(C)cc1C (configuration not stated)"
  group: "false"
- molecule: "NC(=O)c1ccncc1"
  group: "false"
- molecule: "CCOC(=O)c1ccc(C#Cc2ccc3c(c2)C(C)(C)CCS3)nc1"
  group: "false"

Qu. Which outcome did this test record for the molecule OCCOCC#CCOCCO ?
Ans. false

Qu. Which outcome did this test record for the molecule CC(CO)CO ?
Ans. false

====

# measured target: Cytochrome P450 2C9 (Homo sapiens)
# measurement protocol: Cytochrome P450 Family 2 Subfamily C Member 9 (CYP2C9) small molecule antagonists: luciferase reporter qHTS assay (AID 1671198); also: nearly all actives have a fitted effect of over 50% in size
# measurement parameters: P450-Glo CYP2C9 enzyme assay, luciferin luminescence; series mostly up to 115 µM
# Description: U.S. Tox21 Program National Center for Advancing Translational Sciences [NCATS] U.S. Environmental Protection Agency [EPA] National Institutes of Environmental Health Sciences [NIEHS] National Toxicology Program [NTP] U.S. Food and Drug Administration [FDA] […] The luciferin products formed are detected with a luciferin detection reagent, and the amount of light produced is proportional to CYP activity. […]
Records with an inconclusive call do not appear. Activity calls are given as the source filed them. Calls follow the shape of the dose curve; as a rule, active = well fitted inhibition curve with a large enough effect in the repeat runs; inconclusive = weak or mixed curves; inactive = no such curve, though single readings can be large or run the other way.
Write down one outcome, taken from class 1 for active, class 0 for inactive

Illustrative cases are given below, each with its answer.
- molecule: "O=C(O)c1ccc(OCCCOc2ccc(C(=O)O)cc2)cc1"
  group: "class 0"
- molecule: "CC(=O)Nc1ccc(C)cc1C"
  group: "class 0"
- molecule: "CCCCN1CCCC1C(=O)Nc1c(C)cc(C)cc1C (configuration not stated)"
  group: "class 0"
- molecule: "O=[N+]([O-])c1ccc(Nc2ccc(Nc3ccccc3)c(S(=O)(=O)O)c2)c([N+](=O)[O-])c1"
  group: "class 1"
- molecule: "CCCCC(CC)COP(=O)(O)O (configuration not stated)"
  group: "class 1"

Consider the additional molecule presented here.
Qu. Which outcome did this test record for the molecule CCOC(=O)c1ccc(OCCN2C[C@H](O)[C@@H](O)[C@H](O)[C@H]2CO)cc1 ?
Ans. class 0

====

# measured target: Androgen receptor (Homo sapiens)
# measurement protocol: qHTS assay to identify small molecule antagonists of the androgen receptor (AR) signaling pathway using the MDA cell line in the presence of 0.5 nM R1881 (AID 1259243); also: nearly all actives have a fitted effect of over 50% in size
# measurement parameters: MDA-kb2 MMTV-luciferase, R1881 0.5 nM, 16 h; series mostly up to 92.4 µM
# Description: U.S. Tox21 Program National Center for Advancing Translational Sciences [NCATS] NIH Chemical Genomics Center [NCGC] U.S. Environmental Protection Agency [EPA] National Institutes of Environmental Health Sciences [NIEHS] National Toxicology Program [NTP] U.S. Food and Drug Administration [FDA] Tox21 Assay Overview: Androgen receptor (AR) is an important member of the nuclear receptor family. Its signaling plays a critical role in AR-dependent prostate cancer and other androgen related diseases. […]
Inconclusive results are not listed. Calls of active or inactive are those of the source. Calls follow the shape of the dose curve; as a rule, active = well fitted inhibition curve with a large enough effect in the repeat runs; inconclusive = weak or mixed curves; inactive = no such curve, though single readings can be large or run the other way.
Write down one outcome, taken from active, inactive

Illustrative cases are given below, each with its answer.
- compound: "O=C1Cc2ccccc2N1c1c(Cl)cccc1Cl"
  group: "active"
- compound: "COc1ccccc1NC(=O)c1cc2ccccc2cc1O"
  group: "active"
- compound: "OC1(c2ccccc2)CCNCC1"
  group: "inactive"
- compound: "CCC(=O)C1CC(C(C)C)CC=C1C (centres undefined)"
  group: "inactive"
- compound: "CC(=O)OCC(=O)NCCCOc1cccc(CN2CCCCC2)c1"
  group: "inactive"
- compound: "C[C@H]1C[C@H](O)c2ccsc2S1(=O)=O"
  group: "inactive"
- compound: "Oc1ccc(Cl)c2cccnc12"
  group: "active"
- compound: "O=C(Cn1ccnc1[N+](=O)[O-])NCCO"
  group: "inactive"

Qu. Which outcome did this test record for the compound O=c1cc(-c2ccccc2)oc2ccc3ccccc3c12 ?
Ans. inactive

Qu. Which outcome did this test record for the compound Cc1cscn1 ?
Ans. inactive

Qu. Which outcome did this test record for the compound CCCCN(CCN(CCCC)C(=O)N1CCOCC1)C(=O)N1CCOCC1 ?
Ans. inactive

Qu. Which outcome did this test record for the compound CCOc1cccc(-n2cc(C(=O)N3CCN(c4cc(C(=O)O)c5ccccc5c4)CC3)nc2-c2ccc(C)cc2)c1 ?
Ans. inactive

Qu. Which outcome did this test record for the compound O=C1Cc2cc(Cl)ccc2N1 ?
Ans. inactive

Qu. Which outcome did this test record for the compound C[C@H]1c2cccc(O)c2C(O)=C2C(=O)[C@]3(O)C(O)=C(C(N)=O)C(=O)[C@@H](N(C)C)[C@@H]3[C@@H](O)[C@@H]21 ?
Ans. inactive

Attribution: PubChem BioAssay (Tox21)
